Test system: NOMO1
Test description: cell viability relative to DMSO control; higher = less cytotoxic
Condition details: RPMI 5 mM glucose + 10% FBS; 48 h; 46.1 µM
Listed next: entries and their corresponding cell viability.
Number first, unit second: that is the form wanted.

These recorded examples may help you get a feel for the data.
C[C@@H]1COCCN1c1cc(C2([S@+](C)(=N)[O-])CC2)nc(-c2ccnc3[nH]ccc23)n1    17.9%
CCc1ccc(CCOc2ccc(CC3SC(=O)NC3=O)cc2)nc1 (stereo not drawn)    106%
CN1CCN(C2=Nc3cc(Cl)ccc3Nc3ccccc32)CC1    102%

# cell viability (molecule: `CCN1CCN(c2ccc(Nc3cc(N(C)C(=O)Nc4c(Cl)c(OC)cc(OC)c4Cl)ncn3)cc2)CC1` ) is 15.9%

# cell viability (molecule: `CN(C)[S+](=O)([O-])c1ccc2c(c1)C(=Cc1cc3c([nH]1)CCCC3)C(=O)N2` ) is 105%

# cell viability (molecule: `O=c1[nH]c2ccccc2n1CCCN1CCC(n2c(=O)[nH]c3cc(Cl)ccc32)CC1` ) is 122%
